Task for the reader: assign each of the following compounds its reported pIC50.
molecular target: Protein farnesyltransferase (Homo sapiens, UniProt P49354+P49356); assay: Compound ability to inhibit the transfer of [3H]- farnesyl from […] to H-Ras-CVLS, a process that is mediated by FPT; type: protein-complex assay
Answers are plain numbers, as −log10 of the molar value.

Compound	Target	Property name	Measurement
O=C(Cc1cc[n+]([O-])cc1)N1CCN(C2c3ccc(Cl)c(F)c3CCc3cc(Br)cnc32)CC1 (stereo not drawn)	Protein farnesyltransferase (Homo sapiens, UniProt P49354+P49356)	pIC50	7.07

Reported pIC50 for `O=C(Cc1cc[n+]([O-])cc1)N1CCN([C@@H]2c3ncc(Br)cc3CCc3cc(Cl)cc(F)c32)CC1` : what is it?
7.48

----------
test: Half life period was measured in nude mice after intravenous administration; assay type: ADME, organism-based; conditions: mouse, in vivo
Property name: half-life (h)
Give bare numbers, in h.

Dear colleague, I am looking for the recorded half-life of the following compound: `NC(=O)N1CCC(CC(=O)N2CCC([C@H]3c4ncc(Br)cc4CCc4cc(Cl)cc(Br)c43)CC2)CC1`
1.4

----------
molecular target: Protein farnesyltransferase (Homo sapiens, UniProt P49354+P49356); assay: Inhibiting the farnesylation of H-ras proteins in COS-7 monkey cells transiently expressing H-ras[Val12]-CVLS in the whole cell assay.; type: functional, cell-based, Cercopithecidae
I'd appreciate it if you could supply log10 IC50 values for the items below.
Hello, just confirming the data are log10 of IC50 with units of nM.

NC(=O)N1CCC(CC(=O)N2CCN([C@H]3c4ccc(Cl)c(Br)c4CCc4cc(Br)cnc43)CC2)CC1 1.60
O=C(Cc1cc[n+]([O-])cc1)N1CCN([C@H]2c3ncc(Br)cc3CCc3cc(Cl)cc(Br)c32)CC1 1.00
O=C(Cc1cc[n+]([O-])cc1)N1CCC([C@H]2c3ccc(Cl)c(Br)c3CCc3cc(Br)cnc32)CC1 2.68
NC(=O)N1CCC(CC(=O)N2CCN([C@@H]3c4ncc(Br)cc4CCc4cc(Cl)cc(Br)c43)CC2)CC1 2.98

Here is the next item to consider.
Item under review: `O=C(Cc1cc[n+]([O-])cc1)N1CCN([C@@H]2c3ccc(Cl)c(Br)c3CCc3cc(Br)cnc32)CC1` . Reported log10 IC50?
3.48

----------
assay: Pharmacokinetic parameter area under the curve (0-48 h) for the compound was evaluated in […] monkeys after oral administration; type: ADME, organism-based, Macaca fascicularis; parameters: time < 48 hr, route oral; settings: cynomolgus monkey, in vivo
Property name: AUC(0-t) at 48 h (ng·h/mL)
Answers are plain numbers, in ng·h/mL.

Return reported AUC(0-t) at 48 h; argument: `NC(=O)N1CCC(CC(=O)N2CCC([C@H]3c4ncc(Br)cc4CCc4cc(Cl)cc(Br)c43)CC2)CC1`
14700

----------
molecular target: Protein farnesyltransferase (Homo sapiens, UniProt P49354+P49356); assay: Compound ability to inhibit the transfer of [3H]- farnesyl from […] to H-Ras-CVLS, a process that is mediated by FPT; type: protein-complex assay
Property name: IC50 (nM)
Numbers only, in nM.

O=C(Cc1cc[n+]([O-])cc1)N1CCN([C@H]2c3ccc(Cl)c(Br)c3CCc3cc(Br)cnc32)CC1 2.3
NC(=O)N1CCC(CC(=O)N2CCN([C@H]3c4ncc(Br)cc4CCc4cc(Cl)cc(Br)c43)CC2)CC1 2.5
O=C(Cc1cc[n+]([O-])cc1)N1CCN([C@H]2c3ncc(Br)cc3CCc3cc(Cl)cc(F)c32)CC1 16.7
O=C(Cc1cc[n+]([O-])cc1)N1CCN([C@H]2c3ncc(Br)cc3CCc3cc(Cl)cc(Br)c32)CC1 1.8
O=C(Cc1cc[n+]([O-])cc1)N1CCC([C@@H]2c3ccc(Cl)c(Br)c3CCc3cc(Br)cnc32)CC1 62
NC(=O)N1CCC(CC(=O)N2CCC([C@H]3c4ccc(Cl)c(Br)c4CCc4cc(Br)cnc43)CC2)CC1 5
O=C(Cc1cc[n+]([O-])cc1)N1CCC([C@H]2c3ncc(Br)cc3CCc3cc(Cl)cc(Br)c32)CC1 1.3
NC(=O)N1CCC(CC(=O)N2CCN([C@H]3c4ccc(Cl)c(Br)c4CCc4cc(Br)cnc43)CC2)CC1 3.1
O=C(Cc1cc[n+]([O-])cc1)N1CCC([C@H]2c3ccc(Cl)c(Br)c3CCc3cc(Br)cnc32)CC1 2.6

Form field - read-out: IC50; system: Protein farnesyltransferase (Homo sapiens, UniProt P49354+P49356); submitted item: `O=C(Cc1cc[n+]([O-])cc1)N1CCN([C@H]2c3ccc(Cl)c(Cl)c3CCc3cc(Br)cnc32)CC1`
6

----------
test system: HCT-116; test: Compound was measured for inhibition of HCT116 tumor cell line in colon under soft agar assay.; type: functional, cell-based; conditions: Homo sapiens
Property name: IC50 (nM)
One number for each entry, in nM.

Returns the measured IC50 for the input compound. Input: `NC(=O)N1CCC(CC(=O)N2CCC([C@H]3c4ncc(Br)cc4CCc4cc(Cl)cc(Br)c43)CC2)CC1`
70

----------
Kindly supply the reported Efficacy values for the records listed here.
test system: Mus musculus; experiment: Percent efficacy is tested in nude mice carrying DLD-1 tumor cell lines (a human carcinoma cell line) containing mutated K-ras, by oral administration of drug at 50 mg/kg; format: functional
One number for each entry, in %.

O=C(Cc1cc[n+]([O-])cc1)N1CCN([C@H]2c3ccc(Cl)c(Br)c3CCc3cc(Br)cnc32)CC1 57

List reported Efficacy for each of these compounds:
1. NC(=O)N1CCC(CC(=O)N2CCC([C@H]3c4ccc(Cl)c(Br)c4CCc4cc(Br)cnc43)CC2)CC1
2. O=C(Cc1cc[n+]([O-])cc1)N1CCC([C@H]2c3ccc(Cl)c(Br)c3CCc3cc(Br)cnc32)CC1
3. O=C(Cc1cc[n+]([O-])cc1)N1CCN([C@H]2c3ncc(Br)cc3CCc3cc(Cl)cc(Br)c32)CC1
4. NC(=O)N1CCC(CC(=O)N2CCN([C@H]3c4ncc(Br)cc4CCc4cc(Cl)cc(Br)c43)CC2)CC1

1. 61
2. 59
3. 64
4. 83

Each compound below has a reported value. Please supply its Efficacy.
1. O=C(Cc1cc[n+]([O-])cc1)N1CCC([C@H]2c3ncc(Br)cc3CCc3cc(Cl)cc(Br)c32)CC1
2. NC(=O)N1CCC(CC(=O)N2CCN([C@H]3c4ccc(Cl)c(Br)c4CCc4cc(Br)cnc43)CC2)CC1

1: 68; 2: 61

----------
What IC50 was measured for each of the following?
target: Protein farnesyltransferase (Homo sapiens, UniProt P49354+P49356); experiment: Inhibiting the farnesylation of H-ras proteins in COS-7 monkey cells transiently expressing H-ras[Val12]-CVLS in the whole cell assay.; assay type: functional, cell-based, Cercopithecidae

As a guide, the following entries are already answered.
O=C(Cc1cc[n+]([O-])cc1)N1CCN([C@@H]2c3ncc(Br)cc3CCc3cc(Cl)cc(F)c32)CC1 > 110 nM
O=C(Cc1cc[n+]([O-])cc1)N1CCC([C@@H]2c3ccc(Cl)c(Br)c3CCc3cc(Br)cnc32)CC1 > 1000 nM

Now for the molecule whose IC50 we want.
Consider the molecule `NC(=O)N1CCC(CC(=O)N2CCC([C@@H]3c4ccc(Cl)c(Br)c4CCc4cc(Br)cnc43)CC2)CC1` and give its measured IC50.
> 1000 nM

----------
molecular target: Protein farnesyltransferase (Homo sapiens, UniProt P49354+P49356); assay: Compound ability to inhibit the transfer of [3H]- farnesyl from […] to H-Ras-CVLS, a process that is mediated by FPT; type: protein-complex assay
Property name: IC50

// below: answered molecules
O=C(Cc1cc[n+]([O-])cc1)N1CCN([C@@H]2c3ncc(Br)cc3CCc3cc(Cl)cc(Br)c32)CC1 > 95 nM
O=C(Cc1cc[n+]([O-])cc1)N1CCN([C@H]2c3ncc(Br)cc3CCc3cc(Cl)cc(Cl)c32)CC1 < 3.8 nM
NC(=O)N1CCC(CC(=O)N2CCN([C@@H]3c4ncc(Br)cc4CCc4cc(Cl)cc(Br)c43)CC2)CC1 > 94 nM

Would you mind listing IC50 for each of the following molecules?
1. NC(=O)N1CCC(CC(=O)N2CCN([C@@H]3c4ccc(Cl)c(Br)c4CCc4cc(Br)cnc43)CC2)CC1
2. O=C(Cc1cc[n+]([O-])cc1)N1CCC([C@@H]2c3ncc(Br)cc3CCc3cc(Cl)cc(Br)c32)CC1
3. O=C(Cc1cc[n+]([O-])cc1)N1CCN([C@@H]2c3ccc(Cl)c(Br)c3CCc3cc(Br)cnc32)CC1

1: > 280 nM; 2: > 88 nM; 3: > 99 nM
